Where do the numbers come from? From patent US11560380B2.

- Tested on: LNCaP
- procedure.summary: 72 hr XTT cell viability assay, LNCaP
- Assay type: cell-based
- measurement.conditions: Homo sapiens, read-out: IC50 cell growth inhibition
readout.type: pIC50
By convention, pIC50 is the negative base-10 log of a molar concentration.

Known results for molecules:
molecule | pIC50
O=C1c2ccc3c4c(c(NCCN5CCCC5)cc(c24)C(=O)N1CCCN1CCOCC1)C(=O)N(CCCN1CCOCC1)C3=O [Example C1, reference compound] | 6.40
O=C1c2cc(-c3ccc(CN4CCCC4)cc3)c3c4c(cc(NCCN5CCCC5)c(c24)C(=O)N1CCCN1CCOCC1)C(=O)N(CCCN1CCOCC1)C3=O [Example 1] | 6.61

As a next step, examine the molecule that follows.
In: # query: pIC50 of entry C[C@]12CC[C@H](O)CC1=CC[C@@H]1[C@@H]2CC[C@]2(C)C(c3cccnc3)=CC[C@@H]12 [Abiraterone]
Out: 5.41

###

- procedure.summary: Mouse microsomal stability
- Type: in vitro ADME
- measurement.conditions: mouse microsomes; read-out: t1/2 mouse microsomal stability
readout.type: half-life (h)
Note: unit h is implicit; provide only the numeric part.

In: # query: half-life of entry O=C1c2cc(-c3ccc(CN4CCCC4)cc3)c3c4c(cc(NCCN5CCCC5)c(c24)C(=O)N1CCCN1CCOCC1)C(=O)N(CCCN1CCOCC1)C3=O [Example 1]
Out: 4.47
